Assay: NCI Yeast Anticancer Drug Screen. Data for the rad50 strain (AID 155);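 also: 0% = growth of vehicle-only cultures of the same strain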
Details: S. cerevisiae rad50 strain growth inhibition; at 5.0 µM (retest, dose inferred, filed as 0.5); active compounds read high
Compounds without any hit were thinned out: in the full panel of roughly 79,000, 15% have a hit. Active and inactive are the calls of the source. Rule as the data show it: active = growth inhibition above about 70%; inactive = the rest.
measurement-label: growth inhibition

compound="CC(C)C(NC(=O)/C=C\\c1ccccc1)C(=O)O (centres undefined)" measurement_label="growth inhibition" measured_value="-2% (inactive)"

Please look at this compound and report its growth inhibition: CC(NNC(=S)N(C)C1CCCCC1)c1cc2ccccc2cn1 (centres undefined)
48% (inactive)

Please look at this compound and report its growth inhibition: Cc1c(Cl)nc(-c2ccccc2)nc1C(=O)CCl
43% (inactive)

Please look at this compound and report its growth inhibition: COC1C=COC2(C)Oc3c(C)c(O)c4c(O)c(c(C5SCCS5)c(O)c4c3C2=O)NC(=O)/C(C)=C\C=CC(C)C(O)C(C)C(O)C(C)C(OC(C)=O)C1C (centres undefined)
-3% (inactive)
